Give CC50 for every item shown.
# Experiment Notes: Cytotoxicity activity against human HepG2 cells assessed by CellTiter-Glo luminescent cell viability assay.
# Assay type: toxicity, cell-based
# Design: assay stage confirmatory assay, source tissue liver
# Measurement Conditions: HepG2 cells, read-out: IC50 relative
Active and inactive are the calls of the source. No rule for the calls is given here.

Request: Look at this compound and give its reported CC50. "Cc1csc(NC(=O)CC[C@@H]2NC(=O)N(CCc3cccc(F)c3)C2=O)n1"
Result: 8.9 µM (active)

Request: Look at this compound and give its reported CC50. NCC(c1ccc(Cl)cc1)C1CCCC1 (stereo unspecified)
Result: 8 µM (active)

Request: Look at this compound and give its reported CC50. "C=CC(=O)Nc1cccc(Oc2nc(Nc3ccc(N4CCN(C)CC4)c(F)c3)nc3[nH]ccc23)c1"
Result: 1.9 µM (active)

Request: Look at this compound and give its reported CC50. "c1ccc(-c2nc3n(n2)Cc2ccccc2-3)cc1"
Result: 2.7 µM (active)

Request: Look at this compound and give its reported CC50. "O=c1[nH]ncc(NCc2ccc(OC[C@H]3CCCO3)cc2)c1Cl"
Result: 4.2 µM (inactive)

Request: Look at this compound and give its reported CC50. O=C(c1ccc(F)c(F)c1Nc1ccc(I)cc1F)N1CC(O)(C2CCCCN2)C1 (racemic)
Result: < 0.1 µM (active)

###

# Experiment Notes: Cytotoxicity activity against human HepG2 cells assessed by CellTiter-Glo luminescent cell viability assay.
# Type: toxicity, cell-based
# Design: assay stage confirmatory assay, source tissue liver
# Measurement Conditions: HepG2 cells, read-out: IC50 relative
Active and inactive are the calls of the source. No rule for the calls is given here.
// one of active, inactive, no free text

Request: Given Cn1ncc(N2CCC(C(=O)N3CCN(CCOc4ccc(Cl)cc4)CC3)C2)cc1=O (centres undefined) , state the outcome it received in this test.
Result: active

Request: Given CSc1ccc2c(c1)N(CCC1CCCCN1C)c1ccccc1S2 (centres undefined) , state the outcome it received in this test.
Result: active

Request: Given "N#Cc1ccc(NC(=O)c2cccc3ncccc23)cc1" , state the outcome it received in this test.
Result: inactive

Request: Given COc1ccc(-c2cn3nc(N4CCCC(C(=O)NCCN5CCCC5)C4)sc3n2)cc1 (centres undefined) , state the outcome it received in this test.
Result: active

Request: Given "CCCOc1ccc(NC(=O)N2CCN(c3ccncc3)CC2)cc1Cl" , state the outcome it received in this test.
Result: active

Request: Given "N#Cc1ccc(CN2CCN(C(=O)c3ccc(-n4cccn4)cc3)CC2)cc1" , state the outcome it received in this test.
Result: active

Request: Given "Cc1cc(-c2ccc(O)cc2O)nc2cc3c(cc12)OCO3" , state the outcome it received in this test.
Result: inactive

Request: Given "CNC(=O)c1cc(Oc2ccc(NC(=O)Nc3ccc(Cl)c(C(F)(F)F)c3)c(F)c2)ccn1" , state the outcome it received in this test.
Result: active

Request: Given "Oc1ccc2c(c1)CC[C@H](c1ccccc1)[C@@H]2c1ccc(OCCN2CCCC2)cc1" , state the outcome it received in this test.
Result: active

Request: Given COc1ccc(OC)c([N+]2=C3SCCCN3C(O)(c3ccc(C)cc3)C2)c1 (centres undefined) , state the outcome it received in this test.
Result: active

Request: Given "O=C(c1ccc(Cl)cc1)N(CCCc1ccccc1)CCS(=O)(=O)N1CCNCC1" , state the outcome it received in this test.
Result: active

Request: Given CC(C(=O)NCCN(C)C)C1CCN(C(=O)c2cc3cc(Cl)ccc3[nH]2)CC1 (centres undefined) , state the outcome it received in this test.
Result: active

Request: Given "N#Cc1ccc(Cn2cncc2CN2CCN(c3cccc(Cl)c3)C(=O)C2)cc1" , state the outcome it received in this test.
Result: active

Request: Given "CC(C)NC(=O)N1CC(Oc2ccc(-c3noc(C4CCOCC4)n3)cc2)C1" , state the outcome it received in this test.
Result: active

meta.source: ChEMBL document CHEMBL5303711
